// reported AC50 per item
Biological target: KSHV LANA C-terminal domain (residues 932-1162), DNA binding
Assay: inhibitors of C-LANA binding to LBS DNA, dose response, biochemical, fluorescence polarization, MBP fusion, dry powder (AID 588363)
Readout name: AC50

Compound | Readout name | Experimental value
CSc1ccc(/C=N/Nc2cccc(C(=O)O)c2)cc1 | AC50 | 6.54 µM
O=C(O)C1Nc2ccc(Br)cc2C2C=CCC12 (stereo not drawn) | AC50 | 3.33 µM
CCC(=O)Oc1ccc2c(c1)O/C(=C\c1ccco1)C2=O | AC50 | 16.8 µM
O=C(O)c1cc(N2N=C(C(F)(F)F)/C(=C/C=C/c3ccco3)C2=O)ccc1Cl | AC50 | 6.05 µM
O=C1CCCC(O)=C1N=Nc1ccc(C(=O)O)cc1 | AC50 | 20.6 µM
COC(=O)c1ccccc1NC(=O)CCS(=O)(=O)c1ccc(Br)cc1 | AC50 | 16.1 µM
O=c1c(O)cccc2cc(O)c(O)c(O)c12 | AC50 | 5.21 µM
CC1=NN(c2cccc(C(=O)O)c2)C(=O)/C1=C\C=C\c1ccco1 | AC50 | 31.2 µM
CC(=O)c1ccc2c(c1)C1C=CCC1C(C(=O)O)N2 (stereo not drawn) | AC50 | 4.46 µM
O=C1/C(=C/c2ccco2)Oc2c1ccc(O)c2CN1CCCCC1 | AC50 | 8.54 µM
Nc1c(C(=O)Nc2ccccc2F)sc2nc(Cc3ccccc3)cc(C(F)(F)F)c12 | AC50 | 23.1 µM
O=C(O)CCNc1ccc(NCCC(=O)O)c2c1C(=O)c1ccccc1C2=O | AC50 | 24.4 µM
O=C(O)C1Nc2c(O)cc(Cl)c([N+](=O)[O-])c2C2C=CCC12 (stereo not drawn) | AC50 | 13.2 µM

Values from PubChem BioAssay AID588363
